# experimental-target: 5-hydroxytryptamine receptor 1B (Homo sapiens)
# assay-protocol: Agonist activity at 5-hydroxytryptamine 1B receptor by measuring the inhibition of forskolin-stimulated cAMP formation
Reported EC50 values for the following compounds.
Unit nM implied. Number only.

INPUT: What is its EC50 for 5-hydroxytryptamine receptor 1B (Homo sapiens)? Entry: `Cc1cc(C)c(N2CCN(C(=O)COc3ccc4cccc(N5CCN(C)CC5)c4c3)CC2)c(C)c1`
OUTPUT: 25

INPUT: Try `CN1CCN(c2cccc3ccc(OCC(=O)N4CCN(c5cccc6c5OCCO6)CC4)cc23)CC1` next.
OUTPUT: 25

INPUT: Try `CN1CCN(c2cccc3ccc(OCC(=O)N4CCN(c5ccccc5C#N)CC4)cc23)CC1` next.
OUTPUT: 28

INPUT: Try `COc1cccc(N2CCN(C(=O)COc3ccc4cccc(N5CCN(C)CC5)c4c3)CC2)c1OC` next.
OUTPUT: 30

###

Reported Emax values for the following compounds.
# experimental-target: UniProt P28222
# assay-protocol: Percentage Maximal inhibition obtained with 1 uM 5-HT against 5-hydroxytryptamine 1B receptor

Recorded Emax, per entry:
* CN1CCN(c2cccc3ccc(OCC(=O)N4CCN(c5cccc6ccccc56)CC4)cc23)CC1 | < 10%
* c1ccc2c(N3CCNCC3)cccc2c1 | < 10%
* Cc1ccccc1N1CCN(C(=O)COc2ccc3cccc(N4CCN(C)CC4)c3c2)CC1 | < 10%
* CN1CCN(c2cccc3ccc(OCC(=O)N4CCN(c5cccc6c5OCCO6)CC4)cc23)CC1 | 58%

// switching to the query compound
INPUT: Any idea what Emax was measured for `Cc1ccccc1CN1CCN(C(=O)COc2ccc3cccc(N4CCN(C)CC4)c3c2)CC1` ?
OUTPUT: < 10%

###

# experimental-target: 5-hydroxytryptamine receptor 1B (Homo sapiens)
# assay-protocol: Percentage Maximal inhibition obtained with 1 uM 5-HT against 5-hydroxytryptamine 1B receptor
experimental-readout: Emax

Recorded Emax, per entry:
* COc1ccc2ccc(N3CCNCC3)cc2c1 | < 10%
* COc1cccc(N2CCN(C(=O)COc3ccc4cccc(N5CCN(C)CC5)c4c3)CC2)c1OC | 69%
* CN1CCN(c2cccc3ccc(OCC(=O)N4CCN(c5ccccc5C#N)CC4)cc23)CC1 | 48%

INPUT: Any idea what Emax was measured for `Cc1cc(C)c(N2CCN(C(=O)COc3ccc4cccc(N5CCN(C)CC5)c4c3)CC2)c(C)c1` ?
OUTPUT: 26%

###

Reported Antagonism values for the following compounds.
# experimental-target: 5-hydroxytryptamine receptor 1B (Homo sapiens)
# assay-protocol: Antagonism tested at 1 uM against the agonist-induced inhibitory effect of 10 nM 5-carbamoyltryptamine(5-CT)
# Format: functional
Unit % implied. Number only.

INPUT: Any idea what Antagonism was measured for `COc1ccc2ccc(N3CCNCC3)cc2c1` ?
OUTPUT: 95

INPUT: Try `CN1CCN(c2cccc3ccc(OCC(=O)N4CCN(c5cccc6c5OCCO6)CC4)cc23)CC1` next.
OUTPUT: 45

INPUT: Try `c1ccc2c(N3CCNCC3)cccc2c1` next.
OUTPUT: 96

INPUT: Try `CN1CCN(c2cccc3ccc(OCC(=O)N4CCN(c5ccccc5C#N)CC4)cc23)CC1` next.
OUTPUT: 56

INPUT: Try `CN1CCN(c2cccc3ccc(OCC(=O)N4CCN(c5cccc6ccccc56)CC4)cc23)CC1` next.
OUTPUT: 57

###

Reported Antagonism values for the following compounds.
# experimental-target: 5-hydroxytryptamine receptor 1B (Homo sapiens, UniProt P28222)
# Sequence (P28222 whole entry): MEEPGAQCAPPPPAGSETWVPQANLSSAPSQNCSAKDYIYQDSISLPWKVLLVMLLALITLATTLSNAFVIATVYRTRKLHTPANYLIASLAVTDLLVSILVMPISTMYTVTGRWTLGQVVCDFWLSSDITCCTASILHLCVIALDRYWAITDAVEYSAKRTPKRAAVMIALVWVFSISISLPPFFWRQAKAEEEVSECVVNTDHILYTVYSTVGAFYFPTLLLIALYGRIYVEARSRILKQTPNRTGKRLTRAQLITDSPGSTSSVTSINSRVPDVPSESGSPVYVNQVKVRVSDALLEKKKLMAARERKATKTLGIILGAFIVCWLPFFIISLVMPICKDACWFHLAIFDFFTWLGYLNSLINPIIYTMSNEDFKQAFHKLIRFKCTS
# assay-protocol: Antagonism tested at 1 uM against the agonist-induced inhibitory effect of 10 nM 5-carbamoyltryptamine(5-CT)
# Type: functional
Unit % implied. Number only.

• Cc1cc(C)c(N2CCN(C(=O)COc3ccc4cccc(N5CCN(C)CC5)c4c3)CC2)c(C)c1 = 46
• Cc1ccccc1CN1CCN(C(=O)COc2ccc3cccc(N4CCN(C)CC4)c3c2)CC1 = 87

// switching to the query compound
INPUT: Any idea what Antagonism was measured for `COc1cccc(N2CCN(C(=O)COc3ccc4cccc(N5CCN(C)CC5)c4c3)CC2)c1OC` ?
OUTPUT: 47
